# System: MUTZ-3 cells
# Protocol Description: Cytotoxicity by propidium iodide, relative viability
# Condition Label: concentration yielding 90% relative viability, propidium iodide
Rv90: recorded values
Recorded Metric: Rv90 (µM)

In [3]: df
Out[3]:
                                 compound  recorded_metric  result_number
0  C=CC(=O)OCCO [2-Hydroxyethyl acrylate]             Rv90            100
1                        O=C/C=C/c1ccccc1             Rv90            120
2                              Nc1ccccc1O             Rv90            100
3  O=[N+]([O-])c1ccc(Cl)c([N+](=O)[O-])c1             Rv90              4

meta.source: paper PMC3176258
